Listed below: z-score values for each entry.
experiment: S6 kinase pathway phospho-S6 level changes – cell-based, A549, cytoblot, luminescence, serum-stimulated, primary screen (AID 1158); details: 5 h, higher = more signal;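 further: serum-stimulated A549 lung adenocarcinoma cells; signal is phosphorylated S6 detected by cytoblot immunostaining with HRP secondary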
Give a plain numeric answer without units written out.

Prompt: Form field: reported z-score of NC(=O)NCC#Cc1ccc2c(c1)[C@]1(C(=O)N2)[C@H](c2ccc(O)cc2)N2[C@H](c3ccccc3)[C@H](c3ccccc3)OC(=O)[C@H]2[C@@H]1C(=O)N1CCN(c2ncccn2)CC1
Response: -0.0168

Prompt: Form field: reported z-score of CN(C)CCCCCCNC(=O)[C@@H]1C[C@@H]2C(=O)NCC(=O)N2[C@@H]1c1cccc(OCCO)c1
Response: 0.0964

Prompt: Form field: reported z-score of COc1ccc([Si](C)(C)[C@H]2[C@H](CC(=O)N3Cc4ccccc4C[C@H]3CO)O[C@@]3(C(=O)N(Cc4cccc(I)c4)c4ccccc43)[C@@H]2C)cc1
Response: 0.452

Prompt: Form field: reported z-score of COC(=O)[C@@]1(Cc2ccc(OC)cc2)[C@H]2c3cc(C(=O)N4CCCC4)n(CCN4CCOCC4)c3C[C@H]2CN1C(=O)c1ccccc1
Response: -0.286

Prompt: Form field: reported z-score of CC1CC/C=C\[C@H]2OC34C=CCN(Cn5nnc6ccccc65)C(=O)[C@H]3N(CCCO)C(=O)[C@@H]4C2C(=O)O1 (stereo partly specified)
Response: 0.114

Prompt: Form field: reported z-score of CCN(CC)c1ccc(N2CC=CC34O[C@@H]5/C=C\CCCOC(=O)C5[C@H]3C(=O)N(CCCO)[C@@H]4C2=O)cc1 (stereo partly specified)
Response: -0.219

====

target: NADPH oxidase 2 (Homo sapiens) (UniProt P04839); experiment: compounds shifting NOX2 Amplex Red fluorescence – cell-based, HEK293-NOX2, PMA-stimulated, NOX inhibitor project, primary screen (AID 1159); settings: 45 min, higher = more signal, called active from +8 up or from −8 down; further: test concentration not given here
Sequence (P04839 whole entry, looked up): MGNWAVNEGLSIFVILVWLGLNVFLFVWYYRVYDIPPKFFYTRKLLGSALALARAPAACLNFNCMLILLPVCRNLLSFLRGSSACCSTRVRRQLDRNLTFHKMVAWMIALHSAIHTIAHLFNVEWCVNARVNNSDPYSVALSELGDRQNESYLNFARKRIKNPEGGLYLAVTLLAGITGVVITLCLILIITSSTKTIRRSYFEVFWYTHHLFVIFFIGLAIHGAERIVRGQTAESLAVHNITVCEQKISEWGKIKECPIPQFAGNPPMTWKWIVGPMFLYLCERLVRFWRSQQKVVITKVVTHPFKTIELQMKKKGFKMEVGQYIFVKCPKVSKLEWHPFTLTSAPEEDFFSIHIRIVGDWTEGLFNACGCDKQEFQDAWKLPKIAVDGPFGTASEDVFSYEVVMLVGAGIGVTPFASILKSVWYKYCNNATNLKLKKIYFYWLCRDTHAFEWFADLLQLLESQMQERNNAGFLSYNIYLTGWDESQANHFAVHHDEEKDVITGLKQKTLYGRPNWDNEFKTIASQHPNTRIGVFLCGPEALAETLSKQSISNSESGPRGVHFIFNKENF
Listed below: z-score values for each entry.
Give a plain numeric answer without units written out.

{"compound": "Cc1ccc(F)cc1S(=O)(=O)N[C@@H]1CCN(Cc2ccc(C(F)(F)F)cc2)C1", "target_or_test_system": "NADPH oxidase 2 (Homo sapiens) (UniProt P04839)", "z-score": -0.344}

Prompt: Form field: reported z-score of CO[C@H]1O[C@H](CO)[C@@H](OC(=O)Nc2ccccc2-c2ccccc2)[C@H](OC(=O)Nc2ccccc2-c2ccccc2)[C@H]1OC(=O)Nc1ccccc1-c1ccccc1
Response: 1.26

Prompt: Form field: reported z-score of C=CCN1C(=O)[C@]2(COC(c3ccc(OCCCO)cc3)=N2)Cc2ccccc21
Response: -2.29

Prompt: Form field: reported z-score of O=C1O[C@@H](c2ccccc2)[C@@H](c2ccccc2)N2[C@@H](c3ccc(O)cc3)[C@]3(C(=O)Nc4ccccc43)[C@@H](C(=O)NC[C@H](O)c3ccccc3)[C@H]12
Response: 0.0877

Prompt: Form field: reported z-score of CCOC1=C2C(c3ccc(C)cc3)N(S(=O)(=O)c3ccc(C)cc3)CC2n2c(=O)n(-c3ccccc3)c(=O)n2C1 (centres undefined)
Response: 1.22

Prompt: Form field: reported z-score of C=C[C@@H](C)[C@@H](OC(=O)Nc1ccc(OC)cc1)c1ccc(O)c2ccccc12
Response: -5.9

====

test system: glycogen synthase kinase-3 (GSK3A per assay name; protocol says GSK3B); assay: compounds binding glycogen synthase kinase-3 – biochemical, small-molecule microarray, 635 nm fluorescence, GSK3A, primary screen (AID 1103); settings: fluorescence 635 nm, higher = more signal; further: the record names both GSK3A and GSK3B
Listed below: composite z-score values for each entry.
Give a plain numeric answer without units written out.

{"compound": "CC1CC/C=C\\[C@H]2OC34C=CCN(Cn5nnc6ccccc65)C(=O)[C@H]3N(CCCO)C(=O)[C@@H]4C2C(=O)O1 (some centres undefined)", "experimental_readout": "composite z-score", "observed_value": -1.31}

Prompt: Form field: reported composite z-score of O=C(CS)NCCCCCNC(=O)[C@H]1C[C@H]2C(=O)N[C@@H](Cc3ccccc3)C(=O)N2[C@H]1c1cccc(OCCO)c1
Response: 1.36

Prompt: Form field: reported composite z-score of CCCNC(=O)[C@@]1(C)c2ccccc2C(=O)N(Cc2cc(F)cc(C(F)(F)F)c2)[C@H]1c1ccc(CO)cc1
Response: -0.552

Prompt: Form field: reported composite z-score of C=CCN1C(=O)[C@@]2(O[C@@H](CCO)[C@H]([Si](C)(C)c3ccc(OC)cc3)[C@H]2C)c2cc(NC(C)=O)ccc21
Response: 1.16

====

biological target: Epidermal growth factor receptor (Homo sapiens); experiment: compounds binding epidermal growth factor receptor – biochemical, small-molecule microarray, 635 nm fluorescence, primary screen (AID 1104); conditions: EGFR binding, higher = more signal;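 further: score merges 667 nm emission intensity with spot signal to noise over triplicate slides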
Could you label it 1 if measured composite z-score is -0.03 or higher, and 0 otherwise?

As a guide, the following entries are already answered.
{"compound": "NC(=O)NCC#Cc1ccc2c(c1)[C@]1(C(=O)N2)[C@H](C(=O)NC[C@H](O)c2ccccc2)[C@H]2C(=O)O[C@H](c3ccccc3)[C@H](c3ccccc3)N2[C@@H]1c1ccccc1OCCO", "target_or_test_system": "Epidermal growth factor receptor (Homo sapiens)", "label": 1}
{"compound": "Cc1ccc(S[C@]2(C(=O)NCCN3CCOCC3)CC(=O)N(C3CCCCC3)[C@@H]2c2ccc(CO)cc2)cc1", "target_or_test_system": "Epidermal growth factor receptor (Homo sapiens)", "label": 0}
{"compound": "O=C1OCCC=C[C@H]2OC34C=CCN(c5ccc6ccccc6c5)C(=O)[C@H]3N(CCCCCCO)C(=O)[C@@H]4C12 (stereo not given in full)", "target_or_test_system": "Epidermal growth factor receptor (Homo sapiens)", "label": 0}
{"compound": "O=C1O[C@H](c2ccccc2)[C@H](c2ccccc2)N2[C@H]1[C@@H](C(=O)NC[C@H](O)c1ccccc1)[C@]1(C(=O)Nc3ccc(C#CC4=CCCCC4)cc31)[C@H]2c1ccc(O)cc1", "target_or_test_system": "Epidermal growth factor receptor (Homo sapiens)", "label": 1}

Prompt: Reported composite z-score at or above -0.03? CCCCCCCCCCC(O)C1C=CC2C(=O)N(c3ccccc3)C(=O)C2N1Nc1ccc([N+](=O)[O-])cc1 (stereo not given)
Response: 1

Prompt: Reported composite z-score at or above -0.03? O[C@@H](Cc1ccccc1)[C@@H](/C=C/c1ccccc1)NCc1ccccc1Br
Response: 0

Prompt: Reported composite z-score at or above -0.03? COc1cc2c(cc1O)C(c1ccc(CN3CCCC3)cc1)N(Cc1sc3ccccc3c1Cl)CC2 (stereo not given)
Response: 1

Prompt: Reported composite z-score at or above -0.03? CCOC1=C2C(c3ccc(C)cc3)N(S(=O)(=O)c3ccc(C)cc3)CC2n2c(=O)n(-c3ccccc3)c(=O)n2C1 (stereo not given)
Response: 1

Prompt: Reported composite z-score at or above -0.03? CN(C)CCCN1C(=O)[C@@]2(c3ccc([N+](=O)[O-])cc3)CC(=O)N(C3CCCCC3)[C@@H]2c2ccc(CO)cc21
Response: 1

====

assay: blockers of DNA damage checkpoint Chk1 activation – imaging, HeLa, hydroxyurea, phospho-Chk1 nuclear intensity, primary screen (AID 1187); conditions: hydroxyurea-induced phospho-Chk1 immunofluorescence imaging, higher = more signal; further: test concentration not given here
Listed below: z-score values for each entry.
Give a plain numeric answer without units written out.

Solved cases below.
{"compound": "[N-]=[N+]=NCc1ccccc1C[C@]1(C(N)=O)N=C(c2ccc(OCCCO)cc2)O[C@H]1c1ccccc1N=[N+]=[N-]", "z-score": -0.0296}
{"compound": "O=C1OCCC=C[C@H]2OC34C=CCN(CCN5CCOCC5)C(=O)[C@H]3N(CCO)C(=O)[C@@H]4C12 (some centres not stated)", "z-score": -0.757}
{"compound": "O=c1cccc(-c2ccccc2)o1", "z-score": 0.0838}

Prompt: Form field: reported z-score of CC(=O)N1Cc2ccccc2C[C@@]2(N=C(c3ccc(OCCCO)cc3)O[C@H]2c2ccccc2)C1=O
Response: -0.681

Prompt: Form field: reported z-score of CCOC(=O)C1=CC[C@@H](c2ccccc2)N(S(=O)(=O)c2ccc(C)cc2)[C@H]1c1ccc(C#N)cc1
Response: 0.136

Prompt: Form field: reported z-score of COc1ccc([Si](C)(C)[C@H]2[C@H](CC(=O)N3CCC[C@H]3CO)O[C@@]3(C(=O)N(Cc4cccc(N5CCC5=O)c4)c4ccccc43)[C@@H]2C)cc1
Response: 0.429

Prompt: Form field: reported z-score of COc1ccc([Si](C)(C)[C@H]2[C@H](CCO)O[C@@]3(C(=O)N(Cc4ccccc4)c4ccc(N5C(=O)COc6ccccc65)cc43)[C@@H]2C)cc1
Response: -0.791

Prompt: Form field: reported z-score of COCCCNC(=O)[C@@]1(Sc2ccc(C)cc2)CC(=O)N(Cc2ccccc2)[C@@H]1c1ccc(CO)cc1
Response: -0.283

Prompt: Form field: reported z-score of C=C(/C(=C/C[C@@H](OC(C)=O)c1ccc(CO)o1)c1cnc2ccccc2c1)C(C)C
Response: 0.0518

Prompt: Form field: reported z-score of CN(C)CCCN1C(=O)[C@@]2(c3ccc([N+](=O)[O-])cc3)CC(=O)N(C3CCCCC3)[C@@H]2c2ccc(CO)cc21
Response: -0.648

Prompt: Form field: reported z-score of CN1C(=O)C2C(C1=O)C1C=C(c3ccc(CO)cc3)C2C(C2CC2)N1Cc1sc2ccccc2c1Cl (configuration not stated)
Response: 0.442

Prompt: Form field: reported z-score of COc1c(C)cc(-c2cc3c(c(-c4ccccc4)n2)[Si](C(C)C)(C(C)C)O[C@H]3c2ccccc2)cc1C
Response: -0.492

Prompt: Form field: reported z-score of COc1ccc([Si](C)(C)[C@H]2[C@H](CC(=O)N3CCC[C@H]3CO)O[C@@]3(C(=O)N(c4ccccc4)c4ccccc43)[C@@H]2C)cc1
Response: -0.219

Prompt: Form field: reported z-score of O=C1C2C=CC(C(O)CCc3ccccc3)N(Nc3ccccc3)C2C(=O)N1c1ccccc1 (configuration not stated)
Response: 0.448

Prompt: Form field: reported z-score of O=C1O[C@H](c2ccccc2)[C@H](c2ccccc2)N2[C@H]1[C@@H](C(=O)NC[C@H](O)c1ccccc1)[C@]1(C(=O)Nc3ccc(C#CC4(O)CCCCCC4)cc31)[C@H]2c1ccccc1OCCO
Response: -0.0113

Prompt: Form field: reported z-score of COCCOC(=O)N1C(=O)[C@@]2(c3cc(C#CCCO)ccc31)[C@H](C(=O)NC[C@H](O)c1ccccc1)[C@H]1C(=O)O[C@H](c3ccccc3)[C@H](c3ccccc3)N1[C@@H]2c1ccc(OCCO)cc1
Response: 0.298

Prompt: Form field: reported z-score of COc1ccc(C#Cc2ccc3c(c2)[C@]2(C(=O)N3)[C@H](C(=O)N3CCc4cc(OC)c(OC)cc4C3)[C@H]3C(=O)O[C@H](c4ccccc4)[C@H](c4ccccc4)N3[C@@H]2c2ccc(OCCO)cc2)cc1
Response: 2.93

Prompt: Form field: reported z-score of COC(=O)C(CC#Cc1ccc2c(c1)[C@]1(C(=O)N2)[C@H](C(=O)N2CCCCCCC2)[C@H]2C(=O)O[C@H](c3ccccc3)[C@H](c3ccccc3)N2[C@@H]1c1ccccc1OCCO)C(=O)OC
Response: 0.0484

Prompt: Form field: reported z-score of NC(=O)[C@@]1(CCS(=O)(=O)c2ccccc2)N=C(c2ccc(OCCCO)cc2)O[C@H]1c1ccccc1
Response: 0.56
